System: PCSK9 (Homo sapiens, UniProt Q8NBP7) | Read-out: IC50
Sequence (Q8NBP7 153-692): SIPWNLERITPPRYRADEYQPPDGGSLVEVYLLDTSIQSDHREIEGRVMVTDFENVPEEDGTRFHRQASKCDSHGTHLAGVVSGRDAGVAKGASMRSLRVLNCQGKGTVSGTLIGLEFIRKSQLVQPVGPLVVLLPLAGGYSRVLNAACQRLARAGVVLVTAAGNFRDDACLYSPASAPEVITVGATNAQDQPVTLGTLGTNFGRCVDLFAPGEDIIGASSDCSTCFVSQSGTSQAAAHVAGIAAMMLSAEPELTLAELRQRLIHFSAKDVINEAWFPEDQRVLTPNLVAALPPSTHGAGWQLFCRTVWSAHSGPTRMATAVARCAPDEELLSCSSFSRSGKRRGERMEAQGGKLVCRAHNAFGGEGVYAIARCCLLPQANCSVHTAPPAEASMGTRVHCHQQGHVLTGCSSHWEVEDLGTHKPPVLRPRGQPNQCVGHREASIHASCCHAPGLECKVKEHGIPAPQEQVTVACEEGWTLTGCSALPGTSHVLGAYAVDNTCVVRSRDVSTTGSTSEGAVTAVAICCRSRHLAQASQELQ

{"Molecule": "Cc1ccc(C2C(C(=O)O)c3ccccc3C(=O)N2c2cccc(-c3cn(CCOc4cc5c(cc4Oc4ccc(C(=O)O)c(F)c4)[C@@](C)(CC(=O)Nc4nccs4)NCC5)nn3)c2)cc1 (stereo partly drawn)", "IC50 (µM)": 0.837}
{"Molecule": "COc1cccc(NC(=O)C[C@@]2(C)NCCc3cc(OCC4CCCCO4)c(Oc4ccc(-c5ccc(C(=O)O)cc5)c(F)c4)cc32)n1 (stereo partly drawn)", "IC50 (µM)": 0.109}
{"Molecule": "Cc1ccc(-c2cn(CCOc3cc4c(cc3Oc3ccc(C(=O)O)c(F)c3)[C@@](C)(CC(=O)Nc3nccs3)NCC4)nn2)cn1", "IC50 (µM)": 0.53}
{"Molecule": "CC(C)(C)c1cc(NC(=O)c2ccc(Oc3cc4c(cc3OCC3CCCCO3)CCN[C@]4(C)CC(=O)Nc3nccs3)cc2F)[nH]n1 (stereo partly drawn)", "IC50 (µM)": 0.535}
{"Molecule": "C[C@]1(CC(=O)Nc2nccs2)NCCc2cc(OCc3ncccn3)c(Oc3ccc(C(=O)O)c(F)c3)cc21", "IC50 (µM)": 0.477}
{"Molecule": "COc1cc2c(cc1Oc1ccc(-c3ccc(CCC(=O)O)cc3)cc1)[C@@](C)(CC(=O)Nc1nccs1)NCC2", "IC50 (µM)": 0.45}

---

# Test target: HEK293 cells stably overexpressing PCSK9 (Homo sapiens, UniProt Q8NBP7)
# Construct: expressed in transfected cells
# Sequence (Q8NBP7 31-692): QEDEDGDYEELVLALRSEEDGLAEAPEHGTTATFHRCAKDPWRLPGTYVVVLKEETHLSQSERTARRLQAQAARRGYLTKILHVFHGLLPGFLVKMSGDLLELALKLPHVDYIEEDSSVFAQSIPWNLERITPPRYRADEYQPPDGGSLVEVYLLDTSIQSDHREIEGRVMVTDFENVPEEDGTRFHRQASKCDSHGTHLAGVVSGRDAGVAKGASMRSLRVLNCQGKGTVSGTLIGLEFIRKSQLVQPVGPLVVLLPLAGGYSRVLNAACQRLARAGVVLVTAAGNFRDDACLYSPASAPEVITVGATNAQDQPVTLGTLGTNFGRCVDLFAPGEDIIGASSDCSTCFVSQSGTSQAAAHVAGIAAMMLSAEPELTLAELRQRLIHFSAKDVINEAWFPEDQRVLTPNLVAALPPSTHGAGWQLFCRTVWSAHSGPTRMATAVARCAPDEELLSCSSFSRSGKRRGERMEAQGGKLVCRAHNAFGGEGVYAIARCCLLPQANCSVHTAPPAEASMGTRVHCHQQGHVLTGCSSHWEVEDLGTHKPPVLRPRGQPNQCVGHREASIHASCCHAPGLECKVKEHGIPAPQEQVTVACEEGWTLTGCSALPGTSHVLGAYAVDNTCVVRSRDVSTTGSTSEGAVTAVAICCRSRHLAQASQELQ
# Test description: Protein degradation assay (Western Blot/Sally Sue assay)
# Assay type: cell-based
# Test conditions: pro PCSK9 protein level lowered by 50%; 24 hrs compound treatment, serum free DMEM; read-out: PCSK9 DC50 (Pro)
Observable: DC50 (µM)

{"Compound string": "C[C@]1(CC(=O)Nc2nccs2)NCCc2cc(OCCOCCOCCOCCNC(=O)CC34CC5CC(CC(C5)C3)C4)c(Oc3ccc(-c4ccc(C(=O)O)cc4)c(F)c3)cc21", "Result unit": "µM", "Numeric value": 6.55}
{"Compound string": "CC(C)Cc1ccc([C@H](C)C(=O)NCCOCCOCCOc2cc3c(cc2Oc2ccc(-c4ccc(C(=O)O)cc4)c(F)c2)[C@@](C)(CC(=O)Nc2nccs2)NCC3)cc1", "Result unit": "µM", "Numeric value": 6.18}
{"Compound string": "CC(C)(C)OC(=O)/N=C(/NCCC[C@H](NC(=O)OC(C)(C)C)C(=O)NCCOCCOCCOCCOc1cc2c(cc1Oc1ccc(-c3ccc(C(=O)O)cc3)c(F)c1)[C@@](C)(CC(=O)Nc1nccs1)NCC2)NC(=O)OC(C)(C)C", "Result unit": "µM", "Numeric value": 1.37}
{"Compound string": "C[C@]1(CC(=O)Nc2nccs2)NCCc2cc(OCCOCCOCCNC(=O)CC34CC5CC(CC(C5)C3)C4)c(Oc3ccc(-c4ccc(C(=O)O)cc4)c(F)c3)cc21", "Result unit": "µM", "Numeric value": 1.36}
{"Compound string": "CC(C)Cc1ccc([C@H](C)C(=O)NCCOCCOCCOCCOc2cc3c(cc2Oc2ccc(-c4ccc(C(=O)O)cc4)c(F)c2)[C@@](C)(CC(=O)Nc2nccs2)NCC3)cc1", "Result unit": "µM", "Numeric value": 6.08}
{"Compound string": "CC(C)(C)OC(=O)/N=C(/NCCC[C@@H](NC(=O)OC(C)(C)C)C(=O)NCCOCCOc1cc2c(cc1Oc1ccc(-c3ccc(C(=O)O)cc3)c(F)c1)[C@@](C)(CC(=O)Nc1nccs1)NCC2)NC(=O)OC(C)(C)C", "Result unit": "µM", "Numeric value": 4.82}
{"Compound string": "C[C@]1(CC(=O)Nc2nccs2)NCCc2cc(OCCOCCNC(=O)CC34CC5CC(CC(C5)C3)C4)c(Oc3ccc(-c4ccc(C(=O)O)cc4)c(F)c3)cc21", "Result unit": "µM", "Numeric value": 1.53}

---

# Test target: PCSK9 (Homo sapiens)
# Test description: Differential scanning calorimetry (DSC) assay, direct binding / thermal stabilization of PCSK9
# Test conditions: Tm(with compound)−Tm(no compound); 2 μM PCSK9, 300 μM test compound
Observable: ΔTm at 300 µM

{"Compound": "Cc1cn(-c2ccc(-c3cn(CCOc4cc5c(cc4Oc4ccc(C(=O)O)c(F)c4)[C@@](C)(CC(=O)Nc4nccs4)NCC5)nn3)cc2C)cn1 [Example 40]", "Test target": "PCSK9 (Homo sapiens)", "Result": "6.75 °C"}
{"Compound": "C[C@]1(CC(=O)Nc2nccs2)NCCc2cc(OCCn3cc(COc4ccccc4)nn3)c(Oc3ccc(C(=O)O)c(F)c3)cc21 [Example 47]", "Test target": "PCSK9 (Homo sapiens)", "Result": "6.27 °C"}
{"Compound": "C[C@]1(CC(=O)Nc2nccs2)NCCc2cc(OCC3CCCO3)c(Oc3ccc(-c4c[nH]c5c(C(=O)O)cccc45)c(F)c3)cc21 (stereo partly drawn) [Example 20]", "Test target": "PCSK9 (Homo sapiens)", "Result": "8.56 °C"}

---

# Test target: PCSK9 (Homo sapiens, UniProt Q8NBP7)
# Test description: Differential scanning calorimetry (DSC) assay, direct binding / thermal stabilization of PCSK9
# Test conditions: Tm(with compound)−Tm(no compound); 2 μM PCSK9, 300 μM test compound
Observable: ΔTm at 300 µM (°C)

{"Compound": "COc1cc2c(cc1-c1ccc(F)c(C(=O)O)c1)[C@@](C)(CC(=O)Nc1nccs1)NCC2 [Example 112]", "Observable": "ΔTm at 300 µM", "Result unit": "°C", "Numeric value": 6.8}
{"Compound": "C[C@]1(CC(=O)Nc2nccs2)NCCc2cc(OCCOCCNC(=O)CCCC[C@@H]3SC[C@@H]4NC(=O)N[C@@H]43)c(Oc3ccc(C(=O)O)cc3)cc21 [Example 60]", "Observable": "ΔTm at 300 µM", "Result unit": "°C", "Numeric value": 6.42}
{"Compound": "C[C@]1(CC(=O)Nc2nccs2)NCCc2cc(OCC3CCCCO3)c(Oc3cccc(F)c3)cc21 (stereo partly drawn) [Example 79]", "Observable": "ΔTm at 300 µM", "Result unit": "°C", "Numeric value": 6.76}
{"Compound": "C[C@]1(CC(=O)Nc2nccs2)NCCc2cc(OCCn3cc(C(O)C(N)C(=O)O)nn3)c(Oc3ccc(C(=O)O)c(F)c3)cc21 (stereo partly drawn) [Example 53]", "Observable": "ΔTm at 300 µM", "Result unit": "°C", "Numeric value": 6.96}
{"Compound": "COc1ccc(-n2nc(-c3cn(CCOc4cc5c(cc4Oc4ccc(C(=O)O)c(F)c4)[C@@](C)(CC(=O)Nc4nccs4)NCC5)nn3)cc(C)c2=O)cc1 [Example 43]", "Observable": "ΔTm at 300 µM", "Result unit": "°C", "Numeric value": 5.45}
{"Compound": "COc1cc2c(cc1Oc1ccc(C(=O)O)c(F)c1)[C@@](C)(CC(=O)Nc1nccs1)NCC2 [Example 4]", "Observable": "ΔTm at 300 µM", "Result unit": "°C", "Numeric value": 7.06}

---

Entries and their measured IC50 follow.
# Test target: PCSK9 (Homo sapiens)
Observable: IC50 (nM)

{"Compound": "C[C@]1(CC(=O)Nc2nccs2)NCCc2cc(OCCn3cc(C(N)CO)nn3)c(Oc3ccc(C(=O)O)c(F)c3)cc21 (stereo partly shown)", "Numeric value": 615}
{"Compound": "C[C@]1(CC(=O)Nc2nccs2)NCCc2cc(OCC3CCCO3)c(Oc3ccc(C(=O)O)cc3)cc21 (stereo partly shown)", "Numeric value": 420}
{"Compound": "COc1cc2c3cc1Oc1ccc(C(=O)O)c(c1)OCCCCCCc1csc(n1)NC(=O)C[C@@]3(C)NCC2", "Numeric value": 3670}
{"Compound": "C[C@]1(CC(=O)Nc2nccs2)NCCc2cc(OCC3CCCCO3)c(Oc3ccc(C(=O)Nc4n[nH]c5ncccc45)c(F)c3)cc21 (stereo partly shown) [Example 78]", "Numeric value": 604}
{"Compound": "COc1cc2c(cc1Oc1ccc(-c3ccc(CC(=O)O)cc3)cc1)[C@@](C)(CC(=O)Nc1nccs1)NCC2", "Numeric value": 767}
{"Compound": "C[C@]1(CC(=O)Nc2nccs2)NCCc2cc(OCCOCCOCCOCCNC(=O)CC34CC5CC(CC(C5)C3)C4)c(Oc3ccc(-c4ccc(C(=O)O)cc4)c(F)c3)cc21", "Numeric value": 110}
{"Compound": "COc1cc2c(cc1Oc1ccc(C(=O)O)c(F)c1)[C@@](C)(CC(=O)Nc1nccs1)NCC2", "Numeric value": 487}
{"Compound": "C[C@]1(CC(=O)Nc2nccs2)NCCc2cc(OCc3ncccn3)c(Oc3ccc(-c4ccc(C(=O)O)cc4)c(F)c3)cc21", "Numeric value": 162}
{"Compound": "CC(C)C[C@H](NC(=O)[C@@H](O)[C@H](N)Cc1ccccc1)C(=O)NCCOCCOCCOc1cc2c(cc1Oc1ccc(-c3ccc(C(=O)O)cc3)c(F)c1)[C@@](C)(CC(=O)Nc1nccs1)NCC2", "Numeric value": 107}
{"Compound": "C[C@]1(CC(=O)Nc2nccs2)NCCc2cc(OCCOCCNC(=O)CC34CC5CC(CC(C5)C3)C4)c(Oc3ccc(-c4ccc(C(=O)O)cc4)c(F)c3)cc21", "Numeric value": 222}
{"Compound": "CC(=O)NCc1cn(CCOc2cc3c(cc2Oc2ccc(C(=O)O)c(F)c2)[C@@](C)(CC(=O)Nc2nccs2)NCC3)nn1", "Numeric value": 602}
{"Compound": "C[C@]1(CC(=O)Nc2nccs2)NCCc2cc(OCCOCCOCCNC(=O)CC34CC5CC(CC(C5)C3)C4)c(Oc3ccc(-c4ccc(C(=O)O)cc4)c(F)c3)cc21", "Numeric value": 76.9}
{"Compound": "COC(=O)c1ccc(-c2ccc(Oc3cc4c(cc3OCC3CCCCO3)CCN[C@]4(C)CC(=O)Nc3cccc(OC)c3)cc2F)cc1 (stereo partly shown)", "Numeric value": 2.76}
{"Compound": "C[C@]1(CC(=O)Nc2nccs2)NCCc2cc(OCC3CCCCO3)c(Oc3cccc(F)c3)cc21 (single isomer, unassigned)", "Numeric value": 550}
{"Compound": "CC(C)(C)OC(=O)/N=C(/NCCC[C@@H](NC(=O)OC(C)(C)C)C(=O)NCCOCCOc1cc2c(cc1Oc1ccc(-c3ccc(C(=O)O)cc3)c(F)c1)[C@@](C)(CC(=O)Nc1nccs1)NCC2)NC(=O)OC(C)(C)C", "Numeric value": 655}
{"Compound": "COc1cccc(NC(=O)C[C@@]2(C)NCCc3cc(OCC4CCCCO4)c(Oc4ccc(Br)c(F)c4)cc32)n1 (stereo partly shown)", "Numeric value": 1.4}
{"Compound": "Cc1cn(-c2ccc(-c3cn(CCOc4cc5c(cc4Oc4ccc(C(=O)O)c(F)c4)[C@@](C)(CC(=O)Nc4nccs4)NCC5)nn3)cc2C)cn1", "Numeric value": 302}
{"Compound": "COC(=O)c1cc(-c2cc3c(cc2OCC2CCCCO2)CCNC3(C)CC(=O)Nc2nccs2)ccc1F (stereo not shown)", "Numeric value": 1.55}
{"Compound": "C[C@]1(CC(=O)Nc2nccs2)NCCc2cc(OCC3CCCO3)c(Oc3ccc(-c4ccc(C(=O)O)cc4)c(F)c3)cc21 (stereo partly shown)", "Numeric value": 99.3}
{"Compound": "C[C@]1(CC(=O)Nc2nccs2)NCCc2cc(OCc3ccccn3)c(Oc3cccc(F)c3)cc21", "Numeric value": 852}
{"Compound": "C[C@]1(CC(=O)Nc2cccnn2)NCCc2cc(OCC3CCCCO3)c(Oc3ccc(Br)c(F)c3)cc21 (stereo partly shown)", "Numeric value": 1.6}
{"Compound": "COc1cc2c(cc1Oc1ccc3cnccc3c1)[C@@](C)(CC(=O)Nc1nccs1)NCC2", "Numeric value": 648}
{"Compound": "CC(C)(C)OC(=O)/N=C(/NCCC[C@H](NC(=O)OC(C)(C)C)C(=O)NCCOCCOCCOCCOc1cc2c(cc1Oc1ccc(-c3ccc(C(=O)O)cc3)c(F)c1)[C@@](C)(CC(=O)Nc1nccs1)NCC2)NC(=O)OC(C)(C)C", "Numeric value": 718}
{"Compound": "C[C@]1(CC(=O)Nc2nccs2)NCCc2cc(OCCn3cc(CCCCCCCCC(=O)O)nn3)c(Oc3ccc(C(=O)O)c(F)c3)cc21", "Numeric value": 426}
{"Compound": "C[C@]1(CC(=O)Nc2nccs2)NCCc2cc(OCCn3cc(C4(C(=O)O)CC4)nn3)c(Oc3ccc(C(=O)O)c(F)c3)cc21", "Numeric value": 678}

Reference for the values: patent US11008313B2
